# ASSAY METHOD TEXT: yeast display, Sf9 membrane polyspecificity reagent, FACS + sequencing; frameworks hold sequencing errors
READOUT LABEL: polyreactivity (PSR sort gate)

Worked examples, 5 sequences total:
SEQ TEXT | polyreactivity (PSR sort gate)
QVQLVESGGVLVQAGGSLRLSCAASGNTFWLNAMGWYRQSPGKERELVDAITYTDGSTYADSVKGRFTISRDNAKNTVYLQMNSLKPEDTAVYYCAVANPSPYEWIAYYYWGQGTQVTVSS | low polyreactivity
QVQLVESGGGLVQAGGSLRLSCAASGFTFGGNPMGWYRQAPGKERELVAAIRRGGSTYYADSVKGRFTISRDNAKNTVYLQMNSLKPEDTAVYYCAAAIPGKYSNDDWGQGTQVTVSS | high polyreactivity
QVQLVESGGGLVQAGGSLRLSCAASGRTFDSYTMGWYRQAPGKERELVAAINYSVASTNYADSLKGRFTISRDNAKITVYLQMNSLKTEDTAVYYCNRASAGWGPGTQVTVSS | low polyreactivity
QVQLVESGGVLVQAGGSLRISCAASGSIFGSYAMGWYRQAPGKEREFVAAIRRSSASTYYADSVKGRFTISRDNAKNTVYLQMYSLKPEDTAVYYCATQCYCYYGYRYRYAAYDYRGQGTQVTVSS | high polyreactivity
QVQLQESGGGLMQAGGSQRLSCAASGSISYYSDMGWYRQAPGKEREFVAGIGYGTTTNYADSVKGRFTTSRDNAKKTVYLQMISIKPEDTAVYYCAAYQGNGYEFYYWGQGTQVTVRS | low polyreactivity

# query: polyreactivity (PSR sort gate) of entry QVQLVESGGGLVQAGGSLRLSCAASGFTFWRNAMGWYRQAPGKERELVAAISSGTGRTYYADSVKGRFTISRDNAKNTVYLQMNSLKPEDTAVYYCAKVNGRTSYGTSTRDYWGQGTQVTVSS
low polyreactivity

# query: polyreactivity (PSR sort gate) of entry QVQLVESGGGLVQAGGSLRLSCAASGIIFYRYAMGWYRQAPGKERELVAAISSSGGSTYYADSVKGRFTISRDNAKNTVYLQMNSLKPEDTAVYYCARVTTVYDGRGFVDVKRGYWGQGTQVTVSS
high polyreactivity

---

# ASSAY METHOD TEXT: yeast display, Sf9 membrane polyspecificity reagent, FACS + sequencing; frameworks hold sequencing errors
READOUT LABEL: polyreactivity (PSR sort gate)

Worked examples, 8 sequences total:
SEQ TEXT | VALUE
QVQLVESGAGLVQAGGSLRLSCAASGFTLVLNAMGGYSQAPGKERELVAAIRRSAGSTYYADSVKGRFTISRDNAKNTVYLQMNSLKPEDTAVYYSNADYTYTDRRFAPAGGWYYYWGQGTQVTVSS | low polyreactivity
QVQLVESGGGLVQAGGSLRLSCAASGFIFGYNAMGWYRQAPGKERELVAAIRAGDGSTYYADSVKGRFTISRDNAKNTVYLQMNSLKPEDTAVYYCAAAWRQSGYRYGYWGQGTQVTVAS | high polyreactivity
QVQLVESGGGLVQAGGILRLSCDASGSTFVLYAMGWYRQAPGKERELVAAIRKSGGSTYYADSVKGRFTISRDNAKIYVYLQMNSLKPEDTAVYYCNATNYIYEYHYWGQGTQVTVSS | low polyreactivity
QVQLVESGGGLVQAGGSLRLSCAASGRIYDYYAMGWYRQAPGKERELVAAISTSGGSTYYADSVKGRFTISRDHAKNTVYLQMKSLKPEDTAVYYCAKDITVTYPGLDYDYWGQVTQVTVSS | low polyreactivity
QVQLVESGGGLVQAGGSLRLSCAASGFTFPRNTMGWYRQAPGKERELVAVISRSGGRSYYADSVKGRFTISRDNAKNTVYLQMNSLKPEDTAVYYCAADTSVRFDYWGQGTQVTVSS | high polyreactivity
QVQLVESGGGLVQAGGSLRLSCAASGRTFKYYAMGWYRQAPGKERELVAAISLSSGRTYYADSVKGRFTISRDNAKNTVYLQMNSLKPEDTAVYYCAAERYASGLVYGYDYWGQGTQVTVSS | high polyreactivity
QFQLGESVGGLVQAGGSLRLSCAGYGSIFLGKAMGWYREATGKEMEFVDAIRISGGSTYYADSVKGRFTISRDNAQYTVYIQMNILKPEDTAVYYCAKFGPRASLYRTGRYYWGQGTQVTVSS | high polyreactivity
QVQLVESGGGLVQAGGSLRLSCAASGTTLVRYAMGWYRQAPGKERELVASISYSGGSTHYADSVKGRFTISRDNAKNTVYLQMNSLKPEDTAVYYCAARPYYSWGGHYYWGQGTQVTVSS | high polyreactivity

# query: polyreactivity (PSR sort gate) of entry QVQLVESGGGLVQAGGSLRLSCAASGTTIPRNAMGWYRQAPGKERELVAAITSGGSTNYADSVKGRFTISRDNAKNTVYLQMNSLKPEDTAVYYCAADEQVNTQYVVWGDYWGQGTQVTVSS
low polyreactivity

# query: polyreactivity (PSR sort gate) of entry QVQLVDSGGGLVQAGGSLRLSCAASGFTIPYYAMGWYRQAPGKERELVAAISSGGRTNYADSVKGRFTISRDNAKNTVYLPMNSLKPEDTAVYYCATRSYVFAWEFYYWGQGTQVTVSS
high polyreactivity

# query: polyreactivity (PSR sort gate) of entry QVQLVESGGGLVQAGGSLRLSCAASGSIFGFNALGWYRQAPGKERELVAAINNGGSTNYADSVKGRFTISRDNATNTVYLQMNSLKPEDTAVYYCAARLNYIRRGYWGQGTQVTVSS
high polyreactivity

---

# ASSAY METHOD TEXT: yeast display, Sf9 membrane polyspecificity reagent, FACS + sequencing; frameworks hold sequencing errors

SEQ TEXT | polyreactivity (PSR sort gate)
QVQLVESGGGLVQAGGSLRLSCAASGITFAGYAMRWYRQAPGKERELVASMTWGGGRTYYADSVKRRFTISRDNAKNTVYLQMNSLKPEDTAVYYCATRRRPQYNKYDYWGQGTQVTVSS | high polyreactivity
QVQLVGSGGGLVQAGGSLRLSCAASGRTFDRNTMGWYRQAPGKERELVAAISSSGGSTYYADSVKGRFTISRDNAKNTVYLQMNSLKPEDTAVYYCAVLSRQYFRYGYDYWGQGTQVTVSS | high polyreactivity

---

# ASSAY METHOD TEXT: yeast display, Sf9 membrane polyspecificity reagent, FACS + sequencing; frameworks hold sequencing errors

SEQ TEXT | polyreactivity (PSR sort gate)
QVQLLESGGGLVQAGGSLRLSCAASGSTFQAYAMGWYRQAPGKERELVAAISVSDGITYYADSVKGRFTISRDNAKNTVYLQMNSLKPEDTAVYYCAAEISLSRSDRIESYDYWGQGTQVTVSS | low polyreactivity
QVQLVESGGGLVQARGSLRLSWAASGIIFALYAMGWSRQAPGKERELVAAISSDGITKYADSVKGRFTISRDNAKNPDYLQMNSLKPEDTAVYYCAADGYPGDYDYWGQGTQVTVSS | low polyreactivity

---

# ASSAY METHOD TEXT: yeast display, Sf9 membrane polyspecificity reagent, FACS + sequencing; frameworks hold sequencing errors
READOUT LABEL: polyreactivity (PSR sort gate)

Worked examples, 8 sequences total:
SEQ TEXT | VALUE
QVQLVESGGGLVQAGGSLRLSCAASGYTFEDNAMGWYRQAPRKESELVAAIDWSGDSTYYADSVKGRFTISRDNAKNTVYLQMNSLKPEDTAVYYCAADYTTWTDMDYWGQGTQVTVSS | low polyreactivity
QVQLVESGGGLVQAGGSLRLSCAASGRTFQRYAMGWYRQAPGKERELVAAITSSGGTTYYADSVKGRFTISRDNAKNTVYLQMYSMKPEDTAVYYCAARRITSRYDYWGQGTQVTVSS | high polyreactivity
QVQLVESGGGLVQAGGSLRLSCAASGRIFNFYAMGWYRQAPGKERELVASITSGGRTSYADSVKGRFTISRDNAKNTVYLQMNSLKPEDTAVYYCAAVLFGYPRTIGTWYDRYYYWGQGTQVTVSS | high polyreactivity
QVQLVESGGGLVKAGGSLRLSCAASGLTFAINTMGWYRQSRGKERELVAAITGSGGSTYYADSVKGRFTISRDNAKNTVYLQMNSLKPEDSAVYYCAAELLYVQGYAMDYWGQGTQVTVSS | low polyreactivity
QVQLVESGGGLVQAGGSLRLSCAASGSIFAYYAMGWYRQAPGKESELVADITSSGGITYYADSVKGRFTISRDNAKNTVYLQMISLKPEDTAVYYCNADSWAIGGGSYPYDYWGHGTQVTVSS | low polyreactivity
QVQLVESGGGLVQAGGSLRLSCAASGSIFSYNMGWYRQAPGKEREFVAAISSGGSTYYADSVKGRFTISRDNAKNTVYLQMNSLKPEDTAVYYCNRVRRGVWRQDDYWGQGTQVTVSS | high polyreactivity
QVQLVESGGGLVQAGGSLRLSCAASGRTFDGYAMGWSRQAPGKERELVAAINRSGGNTYYADSVKGRFTISRDNAKNTVYLQMNSLNPVDTAVYYCAADGWTSIGVPDYQHDYWGQGTQVTVSS | high polyreactivity
QVQLVESGGGLVQAGGSLRLSCAASGSIFVYYAMGWYRQAPGKERELVAAISSGDGTNYADSVKGRFTISRDNAKNTVYLQMNSLKPEDTAVYYCNADLDSGYGSYDYWGQGTEVTVSS | low polyreactivity

# query: polyreactivity (PSR sort gate) of entry QVQLVESGGGLVQAGGSLRLSCAASGSIFSFYAMGGYRQPPGKEREFVATITYGSGSTHYADSVKGRFTISRDNAKITVYLQLNSLKPEDTAVYYCAAETVRYEWGESPAALFDYWGQGTQVTVSS
low polyreactivity

# query: polyreactivity (PSR sort gate) of entry QVQLVESGGGLVQAGGSLRLSCAASGFIFYYNAMGWYRPAPGTERELVATINNDGGSSTYADSVKGRFTISRDNAKNTVYLQMNSLKPEDTAVYYCNAEAFYFTHTVWIPYYYWGQGTQVTVLS
low polyreactivity

# query: polyreactivity (PSR sort gate) of entry QVQLVESGGGLVQAGGSLRLSCAASGFTFSVYVIGWYRQAPGKERELVAAISSGGDTTYADSVKGRFTISRDNAKNTVYLQMNSLKPEDTAVYYCADYRVILYYLYDYWGQGTQVTVSS
low polyreactivity

# query: polyreactivity (PSR sort gate) of entry QVQLVESGGGLVQAGGSLRLSCAASGRTFLWYAKGWYRQAPGKEMELVATITSGDSTIYADSVKGRFTISRDNEKNTVYLQMNSLKPVDTAVYYCAAGYYYYLRDHDYWGQGTQVTVSS
low polyreactivity

# query: polyreactivity (PSR sort gate) of entry QVQLVESGGGLVQAGGSLRLSCSASGRTFGYNAMGRYRQEPGKERELVAAINWSGASTYYADSVKGRFTISRDNAKNTVYLQMNSLKPEDTAVYYCAADYSYIYGFDYWGQGTQVTVSS
low polyreactivity

# query: polyreactivity (PSR sort gate) of entry QVQLEESGGGLVQAGGSLRLSCAASGRNISRNAMGGYRQPPGKERELVAAITQSGTSTYYADSVKGRFTLSRDNAKNTVYLQMKSLIPEDTAVYYCNAYRQYRYDYWGQGSQVTVSS
low polyreactivity

# query: polyreactivity (PSR sort gate) of entry QVQLVESGGGLVQAGGSLRLSCAASGRIFTIYAMGWYRQAPAKARELVAAISDRGTRTYYADSVKGRFTISRDNAKNTVFLKMNSLKPEDTAVYYCASDALYTYGYDYWGKGTQVTVSS
low polyreactivity

# query: polyreactivity (PSR sort gate) of entry QVQLVESGGGLVQAGGSLRLSCAASGSTFFYNAMGWYIQAPGKERELVAAITVTGTSTYYADSVKGRFTISRDNAKNTVYLQMNSLKPEDTGVYYCNTSLKRRRLRFNYWGQGTQVTVSS
low polyreactivity
